- assay-target: G-protein coupled receptor 151 (Homo sapiens) (UniProt Q8TDV0)
- Sequence (Q8TDV0 whole entry, looked up): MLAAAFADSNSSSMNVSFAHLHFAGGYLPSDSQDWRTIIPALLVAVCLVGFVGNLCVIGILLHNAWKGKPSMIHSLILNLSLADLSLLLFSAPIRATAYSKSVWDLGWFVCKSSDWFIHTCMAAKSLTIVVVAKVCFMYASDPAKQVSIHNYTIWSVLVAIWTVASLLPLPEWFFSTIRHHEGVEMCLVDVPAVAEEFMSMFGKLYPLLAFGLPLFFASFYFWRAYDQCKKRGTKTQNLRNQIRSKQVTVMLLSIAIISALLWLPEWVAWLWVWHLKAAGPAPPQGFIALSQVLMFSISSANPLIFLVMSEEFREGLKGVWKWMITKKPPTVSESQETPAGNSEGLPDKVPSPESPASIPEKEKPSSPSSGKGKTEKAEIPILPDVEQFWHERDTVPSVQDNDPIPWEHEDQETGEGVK
- experiment-summary: GPR151 activator potency, dose response, cell-based (AID 1508610)
- study-conditions: cell-based GPR151 activation reporter
Activity calls are given as the source filed them. The rule behind the calls is not given here.
Labels: True (active), False (inactive)

[[record]]
compound = "Cc1ccc(-c2nc(-c3ccccn3)no2)cc1"
assigned_category = "False"

[[record]]
compound = "Cn1c(/C=C/c2ccccc2)nc2ccccc21"
assigned_category = "False"

[[record]]
compound = "COc1cccc(-c2ccc(SCC(=O)Nc3ccc4c(c3)OCCO4)nn2)c1"
assigned_category = "False"

[[record]]
compound = "COc1cc(C2CC(=O)c3c([nH]c(C(=O)OCCSC)c3C)C2)cc(OC)c1OC (stereo not given)"
assigned_category = "True"

[[record]]
compound = "CC(C)CC(NC(=O)C(C)NC(=O)CNC(=O)C(NC=O)C(C)C)C(=O)NC(C)C(=O)NC(C(=O)NC(C(=O)NC(C(=O)NC(Cc1c[nH]c2ccccc12)C(=O)NC(CC(C)C)C(=O)NC(Cc1c[nH]c2ccccc12)C(=O)NC(CC(C)C)C(=O)NC(Cc1c[nH]c2ccccc12)C(=O)NC(CC(C)C)C(=O)NC(Cc1c[nH]c2ccccc12)C(=O)NCCO)C(C)C)C(C)C)C(C)C (stereo not given)"
assigned_category = "True"

[[record]]
compound = "CCC1CN(CCNC(=O)CC2CCCC2)Cc2cc(OC)ccc2O1 (stereo not given)"
assigned_category = "False"

[[record]]
compound = "COc1cccc(-c2ccc(SCC(=O)Nc3cc(C)on3)nn2)c1"
assigned_category = "False"

[[record]]
compound = "COc1ccc(/C=C2/NC(=O)N(c3cccc(Cl)c3)C2=O)c(OC)c1"
assigned_category = "False"

[[record]]
compound = "Cc1cc2nc(-c3ccc[nH]c3=O)[nH]c2cc1C"
assigned_category = "False"

[[record]]
compound = "CC(C)N1CCC(=NNC(=O)c2ccc(C(C)(C)C)cc2)CC1"
assigned_category = "False"

[[record]]
compound = "O=C(NCSc1ccncn1)c1ccccc1"
assigned_category = "False"

[[record]]
compound = "COC(=O)c1c(NC(=O)/C=C\\C(=O)O)sc(C)c1C"
assigned_category = "False"

[[record]]
compound = "COc1ccc(-c2nc(Nc3ccccc3F)c3ccccc3n2)cc1OC"
assigned_category = "False"

[[record]]
compound = "CCN1/C(=C/c2ccc3cc(C)ccc3[n+]2CC)Sc2ccc(-c3ccccc3)cc21"
assigned_category = "False"

[[record]]
compound = "O=C1[C@H]2[C@H]3[C@H](O)[C@H](O)C/C(=N\\OCc4ccccc4)[C@H]3CC[C@H]2C(=O)N1C1CCCCC1"
assigned_category = "False"

[[record]]
compound = "COc1cc(OC)cc(C(=O)NC2CCCCCCC2)c1"
assigned_category = "False"

[[record]]
compound = "C/C(=C\\c1ccccc1)C(=O)NCCc1ccccc1"
assigned_category = "False"

[[record]]
compound = "COc1ccc(-c2ccc(C(=O)Nc3ccc(NC(C)=O)cc3)s2)cn1"
assigned_category = "False"

[[record]]
compound = "CCN(CC)C(=O)c1cn(CCC#N)nc1-c1ccc(OC)c([N+](=O)[O-])c1"
assigned_category = "False"

[[record]]
compound = "CC(C)=CCN1CCN(Cc2sccc2C)CC1CCO (stereo not given)"
assigned_category = "False"


====

- assay-target: G-protein coupled receptor 151 (Homo sapiens) (UniProt Q8TDV0)
- experiment-summary: GPR151 activator potency, dose response, cell-based (AID 1508610)
- study-conditions: cell-based GPR151 activation reporter
Calls of active or inactive are those of the source. No rule for the calls is given here.
Listed here are compounds together with their documented EC50.
property: EC50

[[record]]
compound = "Cc1nc(/C=C/c2ccc(Cl)cc2)sc1C(=O)O"
reported_measurement = "> 32 µM (inactive)"

[[record]]
compound = "Cc1nc2nc(SCC(=O)N3CCOCC3)nn2c(C)c1Cc1ccccc1"
reported_measurement = "> 28 µM (inactive)"

[[record]]
compound = "Cc1ccc(C(=O)CSc2[nH]c(=O)ncc2C)cc1"
reported_measurement = "> 28.6 µM (inactive)"

[[record]]
compound = "CC1CCCCN1Cc1nc2c(c(=O)n(C)c(=O)n2C)n1CC(N)=O (stereo unspecified)"
reported_measurement = "> 28 µM (inactive)"

[[record]]
compound = "O=C(Nc1ccc(Oc2cc3ccccc3cc2Cl)c(Cl)c1)c1cc(Br)cc(Br)c1O"
reported_measurement = "> 17.2 µM (inactive)"

[[record]]
compound = "C/C(=N\\NC(=O)Cn1nnc(-c2ccccc2)n1)c1nonc1C"
reported_measurement = "> 28 µM (inactive)"

[[record]]
compound = "COc1ccccc1N1CCN(C(=O)c2cnc(N3CCN(c4ncccn4)CC3)c3ccccc23)CC1"
reported_measurement = "> 20.1 µM (inactive)"

[[record]]
compound = "CCOC(=O)c1ccccc1NC(=O)CN(c1ccc(Cl)c(Cl)c1)S(C)(=O)=O"
reported_measurement = "> 28 µM (inactive)"

[[record]]
compound = "COc1ccc2nccnc2c1[N+](=O)[O-]"
reported_measurement = "> 40 µM (inactive)"

[[record]]
compound = "CCC(C)NC(=O)C1=C(C)C(=O)OC12CCCCC2 (stereo unspecified)"
reported_measurement = "> 28 µM (inactive)"

[[record]]
compound = "N=c1sc2c(n1CC(=O)c1ccccc1)CCCC2"
reported_measurement = "> 27 µM (inactive)"


====

- assay-target: G-protein coupled receptor 151 (Homo sapiens) (UniProt Q8TDV0)
- experiment-summary: GPR151 activator potency, dose response, cell-based (AID 1508610)
- study-conditions: cell-based GPR151 activation reporter
Activity calls are given as the source filed them. How the calls were made is not given here.
Labels: yes for active, no for inactive

[[record]]
smiles_structure = "CN1CCN(c2ccc(-c3ccc(C(=O)NCCOc4ccccc4)s3)cc2)CC1"
assay_target = "G-protein coupled receptor 151 (Homo sapiens) (UniProt Q8TDV0)"
assigned_category = "no"

[[record]]
smiles_structure = "COc1ccc(/C=C/C(=O)Nc2ccccc2C(=O)O)cc1OC"
assay_target = "G-protein coupled receptor 151 (Homo sapiens) (UniProt Q8TDV0)"
assigned_category = "no"

[[record]]
smiles_structure = "CC(C)(C)NS(=O)(=O)c1ccc(NC(=O)COc2ccc(Br)cc2)cc1"
assay_target = "G-protein coupled receptor 151 (Homo sapiens) (UniProt Q8TDV0)"
assigned_category = "no"

[[record]]
smiles_structure = "COC(=O)c1ccc(Nc2ncnc3c2cnn3-c2ccc(C)cc2C)cc1"
assay_target = "G-protein coupled receptor 151 (Homo sapiens) (UniProt Q8TDV0)"
assigned_category = "yes"

[[record]]
smiles_structure = "Cc1ccc2nc(/C(C#N)=C\\c3ccccc3OCC#N)[nH]c2c1"
assay_target = "G-protein coupled receptor 151 (Homo sapiens) (UniProt Q8TDV0)"
assigned_category = "no"

[[record]]
smiles_structure = "CC(C)C[C@@H]1NC(=O)[C@@H]2C[C@H](NC(=O)Nc3cccc(C(F)(F)F)c3)CN2C1=O"
assay_target = "G-protein coupled receptor 151 (Homo sapiens) (UniProt Q8TDV0)"
assigned_category = "no"

[[record]]
smiles_structure = "O=C(Cc1cn(-c2ccc(Cl)nn2)c2ccccc12)NCCN1CCOCC1"
assay_target = "G-protein coupled receptor 151 (Homo sapiens) (UniProt Q8TDV0)"
assigned_category = "no"

[[record]]
smiles_structure = "COc1ccccc1-c1nnc(NC(=O)c2ccc([N+](=O)[O-])s2)o1"
assay_target = "G-protein coupled receptor 151 (Homo sapiens) (UniProt Q8TDV0)"
assigned_category = "no"

[[record]]
smiles_structure = "NC(=O)C1CCN(C(=O)c2ccc3nc(N4CCCCC4)sc3c2)CC1"
assay_target = "G-protein coupled receptor 151 (Homo sapiens) (UniProt Q8TDV0)"
assigned_category = "no"

[[record]]
smiles_structure = "Cc1cc(Br)ccc1Nc1nc(-c2ccccc2F)nc2ccccc12"
assay_target = "G-protein coupled receptor 151 (Homo sapiens) (UniProt Q8TDV0)"
assigned_category = "no"


====

- assay-target: G-protein coupled receptor 151 (Homo sapiens) (UniProt Q8TDV0)
- experiment-summary: GPR151 activator potency, dose response, cell-based (AID 1508610)
- study-conditions: cell-based GPR151 activation reporter
Activity calls are given as the source filed them. No rule for the calls is given here.
Labels: active, inactive

[[record]]
compound = "CCCOc1ccc(NC(=O)CC2C(=O)N(c3ccc(Cl)cc3)C(=S)N2Cc2ccncc2)cc1 (centres undefined)"
assigned_category = "inactive"

[[record]]
compound = "CC[C@@H]1NC(=O)[C@H]2CN(C(=O)c3cccc(Cl)c3)CCN2C1=O"
assigned_category = "inactive"

[[record]]
compound = "O=C(Nc1cc(Cl)ccc1Cl)c1ccccc1O"
assigned_category = "inactive"

[[record]]
compound = "COc1cccc(Nc2nc(Nc3cc(C)ccc3C)nc(N3CCOCC3)n2)c1"
assigned_category = "inactive"

[[record]]
compound = "Cc1sc(NC(=O)c2ccco2)c(CN2CCN(CCO)CC2)c1C"
assigned_category = "inactive"

[[record]]
compound = "Cn1c(N)c(S(=O)(=O)N2CCN(c3ccccc3Cl)CC2)c(=O)n(C)c1=O"
assigned_category = "inactive"

[[record]]
compound = "Fc1cccc(-c2cc3nc4c(c(N5CCOCC5)n3n2)CCC4)c1"
assigned_category = "inactive"

[[record]]
compound = "CCOc1ccccc1NC(=O)N1CCC2(CC1)OCCO2"
assigned_category = "inactive"

[[record]]
compound = "O=C(COc1ccccc1Cl)Nc1nccs1"
assigned_category = "inactive"

[[record]]
compound = "CCCCNc1c(N2CCCC(C(=O)OCC)C2)c(=O)c1=O (centres undefined)"
assigned_category = "inactive"

[[record]]
compound = "C1=Nc2ccccc2SC(c2cccnc2)=C1"
assigned_category = "inactive"

[[record]]
compound = "CN(C)c1cccc2c(S(=O)(=O)Nc3nccnc3-c3ccc(C=O)cc3)cccc12"
assigned_category = "inactive"

[[record]]
compound = "COc1ccc(-c2ccc(C(=O)NC3CC3)s2)cc1"
assigned_category = "inactive"

[[record]]
compound = "O=C(Cn1c2c(c(-c3ccccc3Cl)cc1=O)CCC2)NC1CCCC1"
assigned_category = "inactive"

[[record]]
compound = "Cc1ccc(Nc2nc(N(C)C)nc3c2cnn3C)cc1C"
assigned_category = "inactive"

[[record]]
compound = "O=[N+]([O-])c1ccc(/C=C/c2ccc(O)cc2)cc1"
assigned_category = "inactive"

[[record]]
compound = "O=C(O)CCC(NCC(O)Cn1c2ccccc2c2ccccc21)C(=O)O (centres undefined)"
assigned_category = "inactive"

[[record]]
compound = "CN1CCN(c2ccc(/C=C(\\C#N)C(N)=O)cc2[N+](=O)[O-])CC1"
assigned_category = "inactive"

[[record]]
compound = "CC(=O)Nc1ccc(Nc2nc(-c3ccc(C(=O)NC4CC4)cc3)nc3nc[nH]c23)cc1"
assigned_category = "inactive"

[[record]]
compound = "Cc1ccc(S(=O)(=O)N(CC(O)Cn2nc(C)cc2C)c2cccc([N+](=O)[O-])c2)cc1 (centres undefined)"
assigned_category = "inactive"

[[record]]
compound = "O=C(COc1ccc(C(=O)NCCc2ccccc2)cc1)Nc1ccccc1F"
assigned_category = "inactive"

[[record]]
compound = "Cc1sc(NC(=O)c2cc3ccccc3oc2=O)nc1-c1ccc(Br)cc1"
assigned_category = "inactive"

[[record]]
compound = "CCC[n+]1c(/C=C2\\Sc3ccccc3N2CC)ccc2ccccc21"
assigned_category = "inactive"

[[record]]
compound = "COc1ccccc1Cn1c(=S)[nH]c2cc(C(=O)N3CCC(C(N)=O)(N4CCCCC4)CC3)ccc2c1=O"
assigned_category = "inactive"

[[record]]
compound = "CCOCC(=O)NC12CC3CC(CC(C3)C1)C2"
assigned_category = "inactive"

[[record]]
compound = "Nc1ncc(Br)cc1S(=O)(=O)N1CCN(C2CCCCC2)CC1"
assigned_category = "inactive"

[[record]]
compound = "COC(=O)c1ccc(C2C(C#N)=C(N)Oc3n[nH]c(C45CC6CC(CC(C6)C4)C5)c32)cc1 (centres undefined)"
assigned_category = "inactive"

[[record]]
compound = "Cc1ccc2c(c1)N(CC(=O)Nc1ccc(Cl)cc1)C(=O)C(C)O2 (centres undefined)"
assigned_category = "inactive"

[[record]]
compound = "O=C(c1ccc(CNS(=O)(=O)c2ccc(Cl)cc2)cc1)N1CCCC1"
assigned_category = "inactive"

[[record]]
compound = "COc1ccc(S(=O)(=O)N(C)C)c(Cl)c1Cl"
assigned_category = "inactive"

[[record]]
compound = "COc1ccc(N=C2SC(CC(=O)Nc3ccc(OC)cc3OC)C(=O)N2C)cc1 (centres undefined)"
assigned_category = "active"

[[record]]
compound = "CCN1CCc2c(sc(NC(=O)c3ccc(S(=O)(=O)N4CCCC(C)C4)cc3)c2C(=O)OC)C1 (centres undefined)"
assigned_category = "inactive"

[[record]]
compound = "O=C(CSc1nc(-c2ccccc2)cs1)Nc1ccccc1"
assigned_category = "inactive"

[[record]]
compound = "O=C(CCCOc1ccccc1)NNC(=O)c1ccccc1"
assigned_category = "inactive"

[[record]]
compound = "Cc1sc2ncnc(N3CCN(c4ccccn4)CC3)c2c1C"
assigned_category = "inactive"

[[record]]
compound = "COc1ccc(N2C(=O)NC3CC2(C)Oc2c(OC)cccc23)c(OC)c1 (centres undefined)"
assigned_category = "inactive"

[[record]]
compound = "COc1ccc(NC(=O)C2C3CCC(C3=C(C)C)C2C(=O)O)cc1 (centres undefined)"
assigned_category = "inactive"

[[record]]
compound = "CCN(CC)C(=O)C(=O)c1c(C)n(C)c2ccccc12"
assigned_category = "inactive"

[[record]]
compound = "CCCOc1ccc(NC(=O)C2CC(=O)N(CC)C(=Nc3ccc(C)c(C)c3)S2)cc1 (centres undefined)"
assigned_category = "inactive"

[[record]]
compound = "O=C(CN1C(=O)C(c2ccccc2)=NC12CCCC2)Nc1ccccc1"
assigned_category = "inactive"

[[record]]
compound = "Cc1ccc(N(CC(=O)NCCC2=CCCCC2)S(C)(=O)=O)cc1Cl"
assigned_category = "inactive"

[[record]]
compound = "O=C1CCN(C(=O)c2ccc(-c3nc4ccccc4s3)s2)CC1"
assigned_category = "inactive"

[[record]]
compound = "COc1cccc(NC(=O)c2oc3ccc4c(c3c2C)C(=O)CC(C)(C)O4)c1"
assigned_category = "inactive"

[[record]]
compound = "CCOc1ccc(-c2csc(/C(C#N)=C/c3ccccc3OCC)n2)cc1"
assigned_category = "inactive"

